Values were extracted from patent US20250257060A1.

Reported pIC50 values, HDAC6 (Homo sapiens (Human)).
By convention, pIC50 is the negative base-10 log of a molar concentration.

As a guide, the following entries are already answered.
Molecule | pIC50
O=S1(=O)c2cc(-c3nnc(C(F)F)o3)ccc2CN1[C@@H](c1ccc(F)cn1)[C@H](O)c1ccc(F)cn1 (single isomer, unassigned) [Compound 88j-A] | 6.88
Cn1cc(-c2ccccc2N2Cc3ccc(-c4nnc(C(F)F)o4)cc3S2(=O)=O)cn1 [Compound 72] | 6.40
O=S1(=O)c2cc(-c3nnc(C(F)F)o3)ccc2CN1[C@@H](c1ccccn1)[C@H](O)c1ccc(F)cn1 (single isomer, unassigned) [Compound 84j-A-B] | 7.64
O=S1(=O)c2cc(-c3nnc(C(F)F)o3)ccc2CN1[C@@H](c1ccccn1)[C@H](O)c1ccc(F)cn1 (single isomer, unassigned) [Compound 84j-A] | 7.37
CC(C)(C)OC(=O)N[C@@H]1CCCC[C@H]1N1Cc2ccc(-c3nnc(C(F)F)o3)cc2S1(=O)=O [Compound 20] | 6.65
O=S1(=O)c2cc(-c3nnc(C(F)F)o3)ccc2CN1[C@@H](c1cnccn1)[C@H](O)c1cnccn1 (single isomer, unassigned) [Compound 99j-B] | 6.86
O=C(N[C@H]1[C@H](N2Cc3ccc(-c4nnc(C(F)F)o4)cc3S2(=O)=O)CCCC1(F)F)C(F)F [Compound 61] | 7.20
Cn1cc([C@H]([C@@H](O)c2ccccc2)N2Cc3ccc(-c4nnc(C(F)F)o4)cc3S2(=O)=O)cn1 (single isomer, unassigned) [Compound 79i-B] | 7.12

With those in mind, consider the next molecule.
Q: Any idea what pIC50 was measured for O=C(NC1CC1)N[C@@H]1CCCC[C@H]1N1Cc2ccc(-c3nnc(C(F)F)o3)cc2S1(=O)=O [Compound 109] ?
Result: 7.05

----------
# AUC(0-inf) values compiled below
# Assay info: Pharmacokinetic test in mice (IV and PO)
# Assay type: in vivo, BALB/c mice
# Experimental setup: BALB/c, mouse, plasma; mice, PO 100 mg/kg
Value and unit, in that order.

Molecule | AUC(0-inf)
O=C(N[C@@H]1CCCC[C@H]1N1Cc2ccc(-c3nnc(C(F)F)o3)cc2S1(=O)=O)C(F)F [Compound 2] | 601 µM·h

Q: Any idea what AUC(0-inf) was measured for CC(F)(F)C(=O)N[C@@H]1CCCC[C@H]1N1Cc2ccc(-c3nnc(C(F)F)o3)cc2S1(=O)=O [Compound 1] ?
Result: 171 µM·h

----------
# Assay info: Phase I metabolic stability in rat liver microsomes (RLMs)
# Assay type: in vitro ADME, Sprague-Dawley rats
# Experimental setup: Sprague-Dawley, rat, liver microsomes, pH 7.4; RLM
Reported property: CLint scaled at 1 µM (mL/min/kg)
Numbers only here, please. The scale is mL/min/kg.

As a guide, the following entries are already answered.
Compound | Reported property | Readout number
CC(F)(F)C(=O)N[C@@H]1CCCC[C@H]1N1Cc2ccc(-c3nnc(C(F)F)o3)cc2S1(=O)=O | CLint scaled at 1 µM | 25.8
O=S1(=O)c2cc(-c3nnc(C(F)F)o3)ccc2CN1C(c1ccccn1)[C@H](O)c1ccccn1 (stereo partly shown) | CLint scaled at 1 µM | 58.6

With those in mind, consider the next compound.
Q: Any idea what CLint scaled at 1 µM was measured for "O=C(N[C@H]1[C@H](N2Cc3ccc(-c4nnc(C(F)F)o4)cc3S2(=O)=O)CCCC1(F)F)C(F)F" ?
Result: 19.4
